- experiment_notes: soluble on expression in E. coli; label from the status in PepcDB or PDB records
reported_metric: soluble on expression in E. coli

KVKVPYLRLSLPELHIDMDFLKKTVDFSSISALQQTVLYIGRLLVQSGINTLGVDAVAAFNAVSIIDSYVLAPGDSLAASITTFTAQNKGGKQYHRIPKG = not soluble
GKVGDRPIEQQLALGYIKALTEHDYQTLSKYYNRDSVFYDKTADTKYIGTRSIIAFLQRSHEGVLEFDFNIEHMFNTGPLVVMIGNYHLRGPGEQFGKPGKIIDIAIPGVTTLKFDPNTQRLTEQVDLMDYQTMSDQLQSQ = soluble
MMISLYSAATGMSAQQFKLDTIANNLANVDTTGYKKVRAEFQDLLYQYVKNAGTPTAATSSLPTGLYVGHGVRTAATTRIFTLGNFEQTGNALDLAIAGDGFFQIQLQDGRIAYTRDGSFKMDSEGRIVTSNGLLLVPEITIPENAVSINVSPDGIVSAELQDGTIQELGTITLVRFVNPSGLKSIGDNLYIATPASGDPIEGVPGQDGFGAIKQGFLEKSNVDVVREMVDMITAQRAYEFNSRVIQTADEMLRTATNVKR = soluble
MAFAKDLKRRNVLQEAVYHRIKADFDLGAQAAVRTVKKVCDAYATFKANLRAGNYGLEGSKRRIKAESKPVRFRETSAQPFDDRMLTWNLDTKMVSVWTVAGRLKGIPFVCSPEAMRLLAQRKGESDLVMRDGMFFLLATIDIPEPEVSGPDGFLGVDLGIVNIATTSDGRIMSSRQVNRYRQRKRDLRGKLQKKRTKSAARVLKRQRRKEARYATQRNHIIARKLVHTAERTSRGIGLEDLTGIRQRVTAREDQRARLHSWAFAQLGAFVEYKAKRAGVAVVHVDPRNTSRQCSECWHTHRTNRVTRARFVCRSCGIVLHADHNGSRNIAHRADAAWQRGAANRPRTPAAALEHHHHHH = not soluble
MGSDKIHHHHHHMAHLSYSPPRNFDALYRQRVFQSHQAVRMHDAAARELADHSLTWRSGNVDAALYKARARRLTLFSFRYGAEVEIAPRPSEEFIVVHHSIRGAAELSVDGQHMVLPQGRTGWMAPRRNWRMRWEAGCEQLILKIPRDMIEAGGIAPMAPLATLPAGLDTQWLLLVQVLLGASSAPTCAGEPAAWVEHIEQGLASLLRAASSCSLPRESSDRNFVARDPIARLQAMEDYMRERLGAPIGLADLSGAAGVSARVLQQTCQRHRQMSPMELLRDMRLDAVHAWLSEHPSANITETALFYGFGHLGRFAAYYRQRFGESPHQTAQRRCCALS = not soluble

State recorded soluble on expression in E. coli for all listed sequences.
1. MCMEKFYKVGTIVNTQGLQGEVRVMPSTDFAQERFSKGSVLALFDDKDNYIQDLKVKSGRPQKNFYVVKFEGFYHINDVEKYKGYIVKIAEENQEDLDDGEFYYHEIIGSDVYENDILIGQISEILQPGANDVWVVKRKGKRDLLLPYIPPVILNVDVNQHRVDVSIMEGLDDLEHHHHHH
2. MQLLTEKDRPEEEKREETWRRLKRDIASSANTIHEIDTGKARGYNRALFVSSIFNKVSTFAGHGDVEIVQKAIDFISEYNAGIKKPVITPRHRFFQLAETASRMRDKLKETQELENREVTFEGGILVWNYQESRLQVFFNKIPEESKRRELKSSGFHWSPRNRAWQRQLNPNAVSAAKRILNL

1. soluble
2. not soluble

###

- experiment_notes: soluble on expression in E. coli; label from the status in PepcDB or PDB records
reported_metric: soluble on expression in E. coli

MGSDKIHHHHHHMFKNTFQSGFLSILYSIGSKPLQIWDKKVRNGHIKRITDNDIQSLVLEIEGTNVSTTYITCPADPKKTLGIKLPFLVMIIKNLKKYFTFEVQVLDDKNVRRRFRASNYQSTTRVKPFICTMPMRLDDGWNQIQFNLLDFTRRAYGTNYIETLRVQIHANCRIRRVYFSDRLYSEDELPAEFKLYLPVQNKAKQ = not soluble
MGSDKIHHHHHHMFDPETLRTFIAVAETGSFSKAAERLCKTTATISYRIKLLEENTGVALFFRTTRSVTLTAAGEHLLSQARDWLSWLESMPSELQQVNDGVERQVNIVINNLLYNPQAVAQLLAWLNERYPFTQFHISRQIYMGVWDSLLYEGFSLAIGVTGTEALANTFSLDPLGSVQWRFVMAADHPLANVEEPLTEAQLRRFPAVNIEDSARTLTKRVAWRLPGQKEIIVPDMETKIAAHLAGVGIGFLPKSLCQSMIDNQQLVSRVIPTMRPPSPLSLAWRKFGSGKAVEDIVTLFTQRRPEISGFLEIFGNPRS = not soluble

###

- experiment_notes: soluble on expression in E. coli; label from the status in PepcDB or PDB records
reported_metric: soluble on expression in E. coli

DALHDQASALFKPIPEQVTELRGQPISEQQRELGKKLFFDPRLSRSHVLSCNTCHNVGTGGADNVPTSVGHGWQKGPRNSPTVFNAVFNAAQFWDGRAKDLGEQAKGPIQNSVEMHSTPQLVEQTLGSIPEYVDAFRKAFPKAGKPVSFDNMALAIEAYEATLVTPDSPFDLYLKGDDKALDAQQKKGLKAFMDSGCSACHNGINLGGQAYFPFGLVKKPDASVLPSGDKGRFAVTKTQSDEYVFRAAPLRNVALTAPYFHSGQVWELKDAVAIMGNAQLGKQLAPDDVENIVAFLHSLSGKQPRVEYPLLPASTETTPRPAE = soluble
MLSKIELMLLRSLETGKTYTPEEAAELSGLSKDAVLKAAYMLQERGYVRVIENVRTHYSLTEEGERYLKEGLPEEKLYSLVKSGVNSMDELRKRMGREFQIALGWLRRKGAVEVEGDKVVPKREPSFDERA = soluble

Just for reference, the DeepSol protein solubility set is where these values come from.
